For each entry below, report its pKi value.
system-tested: Aurora B (Homo sapiens, UniProt Q96GD4)
Construct: Active Aurora B enzyme (recombinant residues 1-344)
Sequence (Q96GD4 whole entry, the tested form may be a part): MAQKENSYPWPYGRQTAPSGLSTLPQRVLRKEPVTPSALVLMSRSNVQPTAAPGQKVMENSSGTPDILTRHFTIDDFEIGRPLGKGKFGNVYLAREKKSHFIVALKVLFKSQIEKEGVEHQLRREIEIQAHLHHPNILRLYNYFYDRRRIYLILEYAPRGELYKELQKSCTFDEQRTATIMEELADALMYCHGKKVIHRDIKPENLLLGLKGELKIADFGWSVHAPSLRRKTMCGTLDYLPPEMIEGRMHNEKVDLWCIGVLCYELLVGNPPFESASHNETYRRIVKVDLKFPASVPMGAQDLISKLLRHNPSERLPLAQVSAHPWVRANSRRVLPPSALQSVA
Sequence (Q9NQS7 826-918 partner limits assumed): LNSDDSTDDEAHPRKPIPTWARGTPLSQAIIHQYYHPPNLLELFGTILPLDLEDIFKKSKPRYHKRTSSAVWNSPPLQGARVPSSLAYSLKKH
assay-remarks: Aurora B enzyme inhibition (time-resolved fluorescence, histone H3 peptide)
stated-conditions: 1 mM ATP
pKi: −log10 of the molar value.

- compound: "NC(=O)[C@@H]1[C@H](Nc2nc(Nc3cnn(CCO)c3)ncc2Cl)[C@H]2C=C[C@@H]1C2"
  pKi: "> 7.00"
- compound: "Cn1cc(Nc2ncc(Cl)c(N[C@@H]3CC=CC[C@@H]3C(N)=O)n2)cn1.Cn1cc(Nc2ncc(Cl)c(N[C@H]3CC=CC[C@H]3C(N)=O)n2)cn1 (mixture of isomers)"
  pKi: "> 7.00"

Continue with the next compound.
So, CN(C)CCn1cc(Nc2ncc(Cl)c(N[C@@H]3[C@H](C(N)=O)[C@H]4C=C[C@@H]3C4)n2)cn1.CN(C)CCn1cc(Nc2ncc(Cl)c(N[C@H]3[C@@H](C(N)=O)[C@@H]4C=C[C@H]3C4)n2)cn1 (mixture of isomers) ? Its pKi was > 7.00
